- TESTED TARGET: human CB2 receptors (Homo sapiens (Human), UniProt P34972)
- Sequence (P34972 whole entry): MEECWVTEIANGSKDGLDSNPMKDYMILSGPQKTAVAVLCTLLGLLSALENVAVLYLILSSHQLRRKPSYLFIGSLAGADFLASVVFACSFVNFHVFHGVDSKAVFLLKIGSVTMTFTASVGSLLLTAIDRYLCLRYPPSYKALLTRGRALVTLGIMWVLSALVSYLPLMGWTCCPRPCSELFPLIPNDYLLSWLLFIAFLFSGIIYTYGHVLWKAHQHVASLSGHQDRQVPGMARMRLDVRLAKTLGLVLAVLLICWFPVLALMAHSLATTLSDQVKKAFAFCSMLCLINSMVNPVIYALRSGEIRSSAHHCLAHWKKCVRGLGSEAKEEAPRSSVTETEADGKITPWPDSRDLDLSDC
- ASSAY NAME: human CB2 radioligand binding assay ([3H]CP 55,940 competition)
- CONDITION CONTEXT: HEK293 membranes, 0.5 nM [3H]CP 55,940; read-out: human CB2 (Ki)
ASSAY METRIC: Ki (nM)
Give a bare numeral; the unit nM is implied.

Guide cases for Ki, answers given:
SMILES ENTRY	Ki / nM
CCCCn1/c(=N/C(=O)c2cc(C(F)(F)F)ccc2ONC(C)C)cc(C(C)(C)C)n1C	16
CCCCn1/c(=N/C(=O)c2cc(C(F)(F)F)ccc2O/N=C(\C)C(F)(F)F)cc(C(C)(C)C)n1C	12

Prompt line: Record request: Ki value, item CC(C)(C)NOc1ccc(C(F)(F)F)cc1C(=O)/N=c1\sc(C(C)(C)C)nn1CCCCF
Response line: 6.2

====

This listing pairs molecules with measured pKi.
- TESTED TARGET: human CB2 receptors (Homo sapiens (Human), UniProt P34972)
- ASSAY NAME: human CB2 radioligand binding assay ([3H]CP 55,940 competition)
- CONDITION CONTEXT: HEK293 membranes, 0.5 nM [3H]CP 55,940; read-out: human CB2 (Ki)
FYI, pKi means -log10 of a concentration in mol per litre.

Guide cases for pKi, answers given:
MOLECULE	pKi
CCCCn1nc(C(C)(C)C)s/c1=N\C(=O)c1cc(C(F)(F)F)ccc1ON=C(N)CC	8.29
CC(C)Cn1nc(C(C)(C)C)s/c1=N\C(=O)c1cc(C(F)(F)F)ccc1ONC(C)(C)C	7.54
CCCCn1nc(C(C)(C)C)s/c1=N\C(=O)c1cc(C(F)(F)F)ccc1N(C)N(C)C(=O)OC(C)(C)C	6.55

Prompt line: Record request: pKi value, item CCCCn1cc(C(C)(C)C)cc/c1=N\C(=O)c1cc(C(F)(F)F)ccc1ONC(C)(C)C
Response line: 7.06

Prompt line: Record request: pKi value, item Cn1c(C(C)(C)C)c/c(=N\C(=O)c2cc(C#N)ccc2ONC(C)(C)C)n1C[C@H]1CCCO1
Response line: 6.68

====

- TESTED TARGET: human CB2 receptors (Homo sapiens (Human), UniProt P34972)
- ASSAY NAME: human CB2 radioligand binding assay ([3H]CP 55,940 competition)
- CONDITION CONTEXT: HEK293 membranes, 0.5 nM [3H]CP 55,940; read-out: human CB2 (Ki)
ASSAY METRIC: log10 Ki (log10 of the value in nM)
Hi team, quick reminder: these entries are log10 of Ki (nM).

Guide cases for log10 Ki, answers given:
MOLECULE	TESTED TARGET	log10 Ki
CCCCn1/c(=N/C(=O)c2cc(C(F)(F)F)ccc2NNC(=O)C(C)(C)C)cc(C(C)(C)C)n1C	human CB2 receptors (Homo sapiens (Human), UniProt P34972)	-0.40
CCCCn1nc(C(C)(C)C)s/c1=N\C(=O)c1cc(C(F)(F)F)ccc1O/N=C(\C)C(C)(C)C	human CB2 receptors (Homo sapiens (Human), UniProt P34972)	2.33
CC(C)(C)NOc1ccc(C(F)(F)F)cc1C(=O)/N=c1\sc(C(C)(C)C)nn1C[C@H]1CCCO1	human CB2 receptors (Homo sapiens (Human), UniProt P34972)	1.00
CC(C)(C)NOc1ccc(C(F)(F)F)cc1C(=O)/N=c1\sc(C(C)(C)C)nn1CC1CCC1	human CB2 receptors (Homo sapiens (Human), UniProt P34972)	0.45
CCCCn1/c(=N/C(=O)c2cc(C(F)(F)F)ccc2NNC(=O)c2cccnc2)cc(C(C)(C)C)n1C	human CB2 receptors (Homo sapiens (Human), UniProt P34972)	0.40
CCCCn1nc(C(C)(C)C)s/c1=N\C(=O)c1cc(C(F)(F)F)ccc1ON=C(N)c1ccc(F)cc1	human CB2 receptors (Homo sapiens (Human), UniProt P34972)	1.32
CCCCn1nc(C(C)(C)C)s/c1=N\C(=O)c1cc(C(F)(F)F)ccc1ON=C(N)c1ccncc1	human CB2 receptors (Homo sapiens (Human), UniProt P34972)	1.83
CCCCn1nc(C(C)(C)C)s/c1=N\C(=O)c1cc(C(F)(F)F)ccc1ONC(C)=O	human CB2 receptors (Homo sapiens (Human), UniProt P34972)	0.00

Prompt line: Record request: log10 Ki value, item CC(C)(C)NOc1ccc(C(F)(F)F)cc1C(=O)/N=c1\sc(C(C)(C)C)nn1CC1CCCCO1 (stereo not drawn)
Response line: 0.23

Prompt line: Record request: log10 Ki value, item CCCCn1nc(C2(C)CC2)s/c1=N\C(=O)c1cc(C(F)(F)F)ccc1ONC(C)(C)C
Response line: 1.20

Prompt line: Record request: log10 Ki value, item CCCCn1nc(C(C)(C)C)s/c1=N\C(=O)c1cc(C(F)(F)F)ccc1NNc1ccccn1
Response line: 1.51
